target: SARS-CoV-2 Mac1 (Severe acute respiratory syndrome coronavirus 2); experiment: biochemical; conditions: read-out: %inhibition
Where a name gives a salt, the structure may show the parent alone.
endpointLabel: inhibition at 100 µM (%)

>  <compound>
CN(C)N(C)C(=O)[C@@]1(Cc2ccccc2)CCCN(C(=O)[C@@H](Cc2c[nH]c3ccccc23)NC(=O)C(C)(C)N)C1

>  <endpointLabel>
inhibition at 100 µM

>  <displayUnit>
%

>  <testValue>
1.6

$$$$
>  <compound>
CCN[C@H]1CN(CCCOC)S(=O)(=O)c2sc(S(N)(=O)=O)cc21 [Brinzolamide]

>  <endpointLabel>
inhibition at 100 µM

>  <displayUnit>
%

>  <testValue>
0

$$$$
>  <compound>
CC(C)[C@@H]1CC[C@@H](C)C[C@H]1O [(-)-Menthol]

>  <endpointLabel>
inhibition at 100 µM

>  <displayUnit>
%

>  <testValue>
0

$$$$
>  <compound>
CC(N)C12CC3CC(CC(C3)C1)C2 (centres unmarked)

>  <endpointLabel>
inhibition at 100 µM

>  <displayUnit>
%

>  <testValue>
28.1

$$$$
>  <compound>
CO[C@H]1/C=C/O[C@@]2(C)Oc3c(C)c(O)c4c(O)c(c5c(nc6cc(C)ccn65)c4c3C2=O)NC(=O)/C(C)=C\C=C\[C@H](C)[C@H](O)[C@@H](C)[C@@H](O)[C@@H](C)[C@H](OC(C)=O)[C@@H]1C

>  <endpointLabel>
inhibition at 100 µM

>  <displayUnit>
%

>  <testValue>
22.3

$$$$
>  <compound>
CNCCC=C1c2ccccc2CCc2ccccc21 [Nortriptyline hydrochloride]

>  <endpointLabel>
inhibition at 100 µM

>  <displayUnit>
%

>  <testValue>
0

$$$$
>  <compound>
CC(C)[C@H]1CC[C@H](C(=O)N[C@H](Cc2ccccc2)C(=O)O)CC1 [Nateglinide]

>  <endpointLabel>
inhibition at 100 µM

>  <displayUnit>
%

>  <testValue>
0

$$$$
>  <compound>
CCCCCCCCc1ccc(CCC(N)(CO)CO)cc1 [Fingolimod (FTY720) HCl]

>  <endpointLabel>
inhibition at 100 µM

>  <displayUnit>
%

>  <testValue>
33

$$$$
>  <compound>
N=C(N)NC(=O)Cc1c(Cl)cccc1Cl [Guanfacine Hydrochloride]

>  <endpointLabel>
inhibition at 100 µM

>  <displayUnit>
%

>  <testValue>
0

$$$$
>  <compound>
CN1C(C(=O)Nc2ccccn2)=C(O)c2sccc2S1(=O)=O

>  <endpointLabel>
inhibition at 100 µM

>  <displayUnit>
%

>  <testValue>
0

$$$$
>  <compound>
COc1ccc(C2C(=O)c3ccccc3C2=O)cc1

>  <endpointLabel>
inhibition at 100 µM

>  <displayUnit>
%

>  <testValue>
2.26

$$$$
>  <compound>
CC[C@H](NC(=O)[C@H](C)NC)C(=O)N1C[C@@H](O)C[C@H]1Cc1c(-c2[nH]c3cc(F)ccc3c2C[C@@H]2C[C@H](O)CN2C(=O)[C@H](CC)NC(=O)[C@H](C)NC)[nH]c2cc(F)ccc12

>  <endpointLabel>
inhibition at 100 µM

>  <displayUnit>
%

>  <testValue>
3.17

$$$$
>  <compound>
CC(C)(CO)[C@@H](O)C(=O)NCCC(=O)O [Calcium D-Panthotenate]

>  <endpointLabel>
inhibition at 100 µM

>  <displayUnit>
%

>  <testValue>
14.2

$$$$
>  <compound>
Oc1cccc(O)c1

>  <endpointLabel>
inhibition at 100 µM

>  <displayUnit>
%

>  <testValue>
0

$$$$
>  <compound>
C=CC(=O)Nc1cccc(Oc2nc(Nc3ccc(N4CCN(C)CC4)cc3)nc3ccsc23)c1

>  <endpointLabel>
inhibition at 100 µM

>  <displayUnit>
%

>  <testValue>
22.3

$$$$
>  <compound>
N[C@@H]1CONC1=O

>  <endpointLabel>
inhibition at 100 µM

>  <displayUnit>
%

>  <testValue>
6.32

$$$$
>  <compound>
CCOc1cc(CC(=O)N[C@@H](CC(C)C)c2ccccc2N2CCCCC2)ccc1C(=O)O [Repaglinide]

>  <endpointLabel>
inhibition at 100 µM

>  <displayUnit>
%

>  <testValue>
0

$$$$
>  <compound>
Cc1nc(-c2ccc(OCC(C)C)c(C#N)c2)sc1C(=O)O

>  <endpointLabel>
inhibition at 100 µM

>  <displayUnit>
%

>  <testValue>
4.8

$$$$
>  <compound>
Nc1nc(N)c2nc(-c3ccccc3)c(N)nc2n1

>  <endpointLabel>
inhibition at 100 µM

>  <displayUnit>
%

>  <testValue>
4.22

$$$$
>  <compound>
CC1(C)O[C@@H]2C[C@H]3[C@@H]4C[C@H](F)C5=CC(=O)C=C[C@]5(C)[C@@]4(F)[C@@H](O)C[C@]3(C)[C@]2(C(=O)CO)O1 [Fluocinolone Acetonide]

>  <endpointLabel>
inhibition at 100 µM

>  <displayUnit>
%

>  <testValue>
0

$$$$
>  <compound>
CC1=C(/C=C/C(C)=C/C=C/C(C)=C/C=C/C=C(C)/C=C/C=C(C)/C=C/C2=C(C)CCCC2(C)C)C(C)(C)CCC1

>  <endpointLabel>
inhibition at 100 µM

>  <displayUnit>
%

>  <testValue>
7.3

$$$$
>  <compound>
CCOc1ccc(Cc2cc([C@]34OC[C@](CO)(O3)[C@@H](O)[C@H](O)[C@H]4O)ccc2Cl)cc1

>  <endpointLabel>
inhibition at 100 µM

>  <displayUnit>
%

>  <testValue>
26.2

$$$$
>  <compound>
C=CC(=O)N1CCC[C@@H](n2nc(-c3ccc(Oc4ccccc4)cc3)c3c(N)ncnc32)C1

>  <endpointLabel>
inhibition at 100 µM

>  <displayUnit>
%

>  <testValue>
6.43

$$$$
>  <compound>
C1=N/C2=N/c3ccc(OCCN4CCCC4)c(c3)COC/C=C/COCc3cccc(c3)C(=C1)N2 [Pacritinib (SB1518)]

>  <endpointLabel>
inhibition at 100 µM

>  <displayUnit>
%

>  <testValue>
0

$$$$
>  <compound>
Cc1cc(NC(=O)C2=C(O)c3ccccc3S(=O)(=O)N2C)no1

>  <endpointLabel>
inhibition at 100 µM

>  <displayUnit>
%

>  <testValue>
13.6

$$$$
>  <compound>
CC(C)NCC(O)COc1ccc(COCCOC(C)C)cc1 (centres unmarked) [Bisoprolol fumarate]

>  <endpointLabel>
inhibition at 100 µM

>  <displayUnit>
%

>  <testValue>
0

$$$$
>  <compound>
OC[C@@H](O)[C@@H](O)[C@H](O)[C@H](O)CO

>  <endpointLabel>
inhibition at 100 µM

>  <displayUnit>
%

>  <testValue>
0

$$$$
>  <compound>
CCC1=C(C)CN(C(=O)NCCc2ccc(S(=O)(=O)NC(=O)N[C@H]3CC[C@H](C)CC3)cc2)C1=O [Glimepiride]

>  <endpointLabel>
inhibition at 100 µM

>  <displayUnit>
%

>  <testValue>
22.5

$$$$
>  <compound>
O=C(O)CCCN1CCC(O[C@@H](c2ccc(Cl)cc2)c2ccccn2)CC1 [Bepotastine Besilate]

>  <endpointLabel>
inhibition at 100 µM

>  <displayUnit>
%

>  <testValue>
15

$$$$
>  <compound>
Nc1ccc(S(N)(=O)=O)cc1 [Sulfanilamide]

>  <endpointLabel>
inhibition at 100 µM

>  <displayUnit>
%

>  <testValue>
19.9

$$$$
>  <compound>
Nc1nc(=O)n([C@@H]2CS[C@H](CO)O2)cc1F

>  <endpointLabel>
inhibition at 100 µM

>  <displayUnit>
%

>  <testValue>
0

$$$$
>  <compound>
CC(=O)O[C@H]1Cc2ccccc2N(C(N)=O)c2ccccc21 [Eslicarbazepine Acetate]

>  <endpointLabel>
inhibition at 100 µM

>  <displayUnit>
%

>  <testValue>
0

$$$$
